pKd by entry:
Measured on: T1, recombinant human Her2/ErbB2 Fc Tag (ACROBiosystems) (human, UniProt P04626 23-652)
T1 construct: Bought product; Captured on protein A biosensors; also called HER2-Fc; not shown: Fc tag of the bought product
Protocol: BLI (Octet-HTX), HER2-Fc captured on protein A biosensors, sdAb in solution, 37 C
When answering, recall that pKd equals minus log10 of the concentration in mol/L, and write that number alone.

1) anti-HER2 humanized synthetic single domain antibody sdAb no 1 (VHH, Purified sdAb in BLI; also called sdAb 1; hsdAb1) VHH: EVQLQASGGGFVQPGGSLRLSCAASGATSNISNMGWFRQAPGKEREFVSAISRAESRPLYYADSVKGRFTISRDNSKNTVYLQMNSLRAEDTATYYCAYMPLVRHKAYWGQGTQVTVSS = 8.34

Next, consider the following binder.
-- ask For the binder anti-HER2 humanized synthetic single domain antibody sdAb no 6 (VHH, Purified sdAb in BLI; Any tag is not described for this assay; also called sdAb 6) VHH: EVQLQASGGGFVQPGGSLRLSCAASGRGYTGTTMGWFRQAPGKEREFVSAISWTSNQTSYYADSVKGRFTISRDNSKNTVYLQMNSLRAEDTATYYCAMMPLPRWKGYWGQGTQVTVSS , give its reported pKd.
-- reply 8.08
